Test system: MAGI cells
assay.overview: cytotoxicity in the anti-HIV assay (CC50)
Type: cell-based
run.conditions: average of numeric determinations
Task for the reader: assign each of the following compounds its reported Cytotoxicity Avg..

Query: Given C=C1CC[C@@H]2[C@](C)(CC[C@H]3O[C@H](C=C(C)C)C[C@@]23C)[C@@H]1Cc1c(OC)oc(C)c(C)c1=O [Compound 22, O-methylated higginsianin A] , state its recorded Cytotoxicity Avg..
Reply: 5.079 µM

Query: Given C=C1CCC2C(C)(CC(=O)C=C(C)C)C(O)CCC2(C)C1Cc1c(OC)oc(CO)c(C)c1=O (stereo not drawn) [Compound 19] , state its recorded Cytotoxicity Avg..
Reply: 6.013 µM

Query: Given C=C1CCC2C(C)(CCC=C(C)C)C(=O)CCC2(C)C1Cc1c(O)c(C)c(C)oc1=O (stereo not drawn) [Compound 8] , state its recorded Cytotoxicity Avg..
Reply: 8.816 µM
